- assay.target: mu opioid receptor (Rattus norvegicus)
- Construct: Following incubation with the mu selective peptide ligand, ˜0.8 nM [^3H]DAMGO; from tissue; host or cells: forebrain of male Wistar rats (Charles River)
- test.method.notes: Rat Brain Mu Opioid Receptor Binding Assay
assay.endpoint: Ki (nM)
Quick note: give the figure in nM, leave out the unit.

These recorded examples may help you get a feel for the data.
1) Oc1cccc2c1Oc1cc(-c3cccnc3)ccc1C2C1CC2CCC(C1)N2 (centres unmarked) [Compound 8k] : 27.2
2) CCN(CC)C(=O)c1ccc2c(c1)Oc1ccccc1C2C1CC2CCC(C1)N2Cc1ccco1 (centres unmarked) [Compound 13a] : 3020

Data request: Using the record for CCN(CC)C(=O)c1ccc2c(c1)Oc1c(O)cccc1C2C1CC2CCC(C1)N2 (centres unmarked) [Compound 8c] , state its measured Ki.
Data returned: 75

Data request: Kindly indicate its recorded Ki. Item: c1ccc2c(c1)Oc1cc(-c3ccsc3)ccc1C2C1CC2CCC(C1)N2 (centres unmarked) [Compound 6b]
Data returned: 83200

Data request: Tell us which Ki value is on record for CCN(CC)C(=O)c1ccc2c(c1)Oc1c(O)cccc1C2C1CC2CCC(C1)N2Cc1ccoc1 (centres unmarked) [Compound 9c]
Data returned: 73

Data request: For c1ccc2c(c1)Oc1cc(-c3nnn[nH]3)ccc1C2C1CC2CCC(C1)N2 (centres unmarked) [Compound 5j] , write its Ki.
Data returned: 4780

Data request: Retrieve Ki measured for CCN(CC)C(=O)c1ccc2c(c1)Oc1c(OC)cccc1C2C1CC2CCC(C1)N2 (centres unmarked) [Compound 7c] and print it.
Data returned: 463

====

molecules and their reported pEC50
- assay.target: delta opioid receptor (Mus musculus, UniProt P32300)
- Construct: NG108-15 cell membranes were purchased from Applied Cell Sciences (Rockville, Md.); host or cells: NG108-15 cell membranes (purchased)
- Sequence (P32300 whole entry): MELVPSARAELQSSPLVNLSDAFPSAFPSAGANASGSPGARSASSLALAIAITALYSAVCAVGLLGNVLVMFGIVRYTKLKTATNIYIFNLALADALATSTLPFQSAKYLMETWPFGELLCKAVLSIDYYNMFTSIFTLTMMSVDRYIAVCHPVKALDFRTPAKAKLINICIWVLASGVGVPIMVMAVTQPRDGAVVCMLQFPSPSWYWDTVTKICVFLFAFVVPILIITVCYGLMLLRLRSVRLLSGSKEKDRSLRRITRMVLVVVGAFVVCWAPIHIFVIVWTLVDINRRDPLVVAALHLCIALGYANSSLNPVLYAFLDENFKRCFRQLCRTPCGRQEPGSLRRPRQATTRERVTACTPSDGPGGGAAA
- test.method.notes: [35S]GTPγS Binding Assay in NG108-15 Cell Membranes (Delta Opioid)
- Type: biochemical
pEC50 field: float, defined as -log10 of concentration (mol/L).

Data request: Param request: pEC50 | system delta opioid receptor (Mus musculus, UniProt P32300) | item CCN(CC)C(=O)c1ccc2c(c1)Oc1c(O)cccc1C2C1CC2CCC(C1)N2Cc1ccoc1 (stereo not drawn)
Data returned: 8.34

Data request: Lab note: record pEC50 of CCN(CC)C(=O)c1ccc2c(c1)Oc1c(O)cccc1C2C1CC2CCC(C1)N2Cc1ncc[nH]1 (stereo not drawn) [Compound 10c] tested on delta opioid receptor (Mus musculus, UniProt P32300).
Data returned: 8.19

Data request: // fetch pEC50; item: CCN(CC)C(=O)c1ccc2c(c1)Oc1c(OC)cccc1C2C1CC2CCC(C1)N2 (stereo not drawn) ; system: delta opioid receptor (Mus musculus, UniProt P32300)
Data returned: 7.53

Data request: GET pEC50 where system = delta opioid receptor (Mus musculus, UniProt P32300) and item = CCN(CC)C(=O)c1ccc2c(c1)Oc1c(O)cccc1C2C1CC2CCC(C1)N2 (stereo not drawn)
Data returned: 8.30

Data request: Write down the reported pEC50 (system: delta opioid receptor (Mus musculus, UniProt P32300)) of CCN(CC)C(=O)c1ccc2c(c1)Oc1ccccc1C2C1CC2CCC(C1)N2Cc1cccs1 (stereo not drawn) [Compound 14a]
Data returned: 7.01

Data request: For delta opioid receptor (Mus musculus, UniProt P32300), give pEC50 of the listed molecule: CCN(CC)C(=O)c1ccc2c(c1)Oc1ccccc1C2C1CC2CCC(C1)N2Cc1ccccc1 (stereo not drawn) [Compound 11a]
Data returned: 6.93

====

- assay.target: mu opioid receptor (Rattus norvegicus, UniProt P33535)
- Construct: Following incubation with the mu selective peptide ligand, ˜0.8 nM [^3H]DAMGO; from tissue; host or cells: forebrain of male Wistar rats (Charles River)
- Sequence (P33535 whole entry): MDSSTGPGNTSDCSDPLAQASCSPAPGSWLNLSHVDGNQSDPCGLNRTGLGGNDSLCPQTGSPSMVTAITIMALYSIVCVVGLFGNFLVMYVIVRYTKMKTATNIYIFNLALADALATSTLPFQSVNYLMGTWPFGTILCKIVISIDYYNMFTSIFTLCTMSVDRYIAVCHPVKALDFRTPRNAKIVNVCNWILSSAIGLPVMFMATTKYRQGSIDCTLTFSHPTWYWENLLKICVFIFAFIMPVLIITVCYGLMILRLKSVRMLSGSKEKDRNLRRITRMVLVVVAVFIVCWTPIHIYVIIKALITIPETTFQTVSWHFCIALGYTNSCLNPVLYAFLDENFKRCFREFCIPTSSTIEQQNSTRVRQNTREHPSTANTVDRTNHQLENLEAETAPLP
- test.method.notes: Rat Brain Mu Opioid Receptor Binding Assay
assay.endpoint: Ki (nM)
Numeric answer only, unit nM assumed.

1. CCN(CC)C(=O)c1ccc2c(c1)Oc1ccc(Br)cc1C2C1CC2CCC(C1)N2 (stereo not shown) : 1750
2. CCN(CC)C(=O)c1ccc2c(c1)Oc1ccccc1C2C1CC2CCC(C1)N2Cc1ccccc1 (stereo not shown) [Compound 11a] : 1120
3. CCN(CC)C(=O)c1ccc2c(c1)Oc1c(C)cccc1C2C1CC2CCC(C1)N2 (stereo not shown) : 4700

Data request: Look up and state reported Ki for c1cncc(-c2ccc3c(c2)Oc2ccccc2C3C2CC3CCC(C2)N3Cc2ccoc2)c1 (stereo not shown)
Data returned: 556

Data request: Give the measured Ki for c1ccc2c(c1)Oc1cc(-c3ccncc3)ccc1C2C1CC2CCC(C1)N2 (stereo not shown) [Compound 20b]
Data returned: 3490

Data request: Please look at this molecule and report its Ki: c1ccc(CN2C3CCC2CC(C2c4ccccc4Oc4cc(-c5ccncc5)ccc42)C3)nc1 (stereo not shown) [Compound 22b]
Data returned: 305

Data request: Provide one value: measured Ki of CCN(CC)C(=O)c1ccc2c(c1)Oc1c(O)cccc1C2C1CC2CCC(C1)N2Cc1ncc[nH]1 (stereo not shown) [Compound 10c]
Data returned: 70

Data request: Complete the entry with Ki for COc1cccc2c1Oc1cc(Br)ccc1C2C1CC2CCC(C1)N2 (stereo not shown) [Compound 14k]
Data returned: 7380

Data request: Provide only the value of recorded Ki for c1ccc(CN2C3CCC2CC(C2c4ccccc4Oc4cc(-c5cccnc5)ccc42)C3)cc1 (stereo not shown) [Compound 11b]
Data returned: 955

Data request: Annotate the molecule c1ccc(CN2C3CCC2CC(C2c4ccccc4Oc4cc(-c5cccnc5)ccc42)C3)nc1 (stereo not shown) [Compound 10b] with its measured Ki.
Data returned: 350

Data request: Determine its reported Ki: c1ccc(CN2C3CCC2CC(C2c4ccccc4Oc4cc(-c5ccncc5)ccc42)C3)cc1 (stereo not shown) [Compound 23b]
Data returned: 890

Data request: Consider the molecule CC(=O)Nc1ccccc1-c1ccc2c(c1)Oc1ccccc1C2C1CC2CCC(C1)N2Cc1ccoc1 (stereo not shown) [Compound 13b] . State its measured Ki.
Data returned: 1490

Data request: Note Ki for the molecule shown: CC(=O)Nc1ccccc1-c1ccc2c(c1)Oc1ccccc1C2C1CC2CCC(C1)N2Cc1cccs1 (stereo not shown) [Compound 14b]
Data returned: 2150

Data request: For the molecule CCN(CC)C(=O)c1ccc2c(c1)Oc1ccccc1C2C1CC2CCC(C1)N2 (stereo not shown) , give its measured Ki value.
Data returned: 6450

====

Each entry below carries its recorded Ki.
- assay.target: delta opioid receptor (Rattus norvegicus)
- Construct: from tissue; host or cells: forebrain of male Wistar rats (Charles River)
- Sequence (P33533 whole entry): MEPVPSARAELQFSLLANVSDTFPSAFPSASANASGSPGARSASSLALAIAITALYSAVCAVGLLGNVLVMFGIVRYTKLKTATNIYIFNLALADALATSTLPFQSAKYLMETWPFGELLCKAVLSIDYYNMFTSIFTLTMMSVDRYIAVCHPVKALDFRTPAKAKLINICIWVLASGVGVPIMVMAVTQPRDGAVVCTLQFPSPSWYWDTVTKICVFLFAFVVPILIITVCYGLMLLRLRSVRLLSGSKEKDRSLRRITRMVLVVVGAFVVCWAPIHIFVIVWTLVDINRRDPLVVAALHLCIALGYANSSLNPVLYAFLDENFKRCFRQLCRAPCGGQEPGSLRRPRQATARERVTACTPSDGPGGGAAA
- test.method.notes: Rat Brain Delta Opioid Receptor Binding Assay
- assay.conditions: rat forebrain membranes; [3H]DPDPE or [3H]naltrindole; read-out: delta (Ki)
Respond numerically; units are nM and should not be typed.

Previously resolved entries follow.
1) C=CCN1C2CCC1CC(C1c3ccccc3Oc3cc(-c4ccccc4NC(C)=O)ccc31)C2 (stereo not drawn) [Compound 18b] : 408
2) COc1cccc2c1Oc1cc(-c3ccccc3NC(C)=O)ccc1C2C1CC2CCC(C1)N2 (stereo not drawn) : 180

Next item in the queue.
Data request: Fill in Ki for record COc1cccc2c1Oc1cc(-c3cccnc3)ccc1C2C1CC2CCC(C1)N2 (stereo not drawn)
Data returned: 655

====

Reported values of delta GTPgS Rel Eff for individual entries
- assay.target: delta opioid receptor (Mus musculus)
- Construct: NG108-15 cell membranes were purchased from Applied Cell Sciences (Rockville, Md.); host or cells: NG108-15 cell membranes (purchased)
- test.method.notes: [35S]GTPγS Binding Assay in NG108-15 Cell Membranes (Delta Opioid)
- Format: biochemical
- assay.conditions: NG108-15 cell membranes; relative efficacy
Answer field: number only, no words.

1. CCN(CC)C(=O)c1ccc2c(c1)Oc1c(OC)cccc1C2C1CC2CCC(C1)N2 (stereo not drawn) : 0.80
2. CCN(CC)C(=O)c1ccc2c(c1)Oc1c(O)cccc1C2C1CC2CCC(C1)N2Cc1ccoc1 (stereo not drawn) : 1.02
3. CCN(CC)C(=O)c1ccc2c(c1)Oc1c(O)cccc1C2C1CC2CCC(C1)N2Cc1ncc[nH]1 (stereo not drawn) [Compound 10c] : 0.94

Data request: Supply measured delta GTPgS Rel Eff of CCN(CC)C(=O)c1ccc2c(c1)Oc1ccccc1C2C1CC2CCC(C1)N2Cc1cccs1 (stereo not drawn) [Compound 14a] in your reply.
Data returned: 0.65

Data request: Using known records, supply delta GTPgS Rel Eff for CCN(CC)C(=O)c1ccc2c(c1)Oc1c(O)cccc1C2C1CC2CCC(C1)N2 (stereo not drawn)
Data returned: 0.85

Data request: Annotate the molecule CCN(CC)C(=O)c1ccc2c(c1)Oc1ccccc1C2C1CC2CCC(C1)N2Cc1ccccc1 (stereo not drawn) [Compound 11a] with its measured delta GTPgS Rel Eff.
Data returned: 0.78

====

- assay.target: mu opioid receptor (Rattus norvegicus, UniProt P33535)
- Construct: Following incubation with the mu selective peptide ligand, ˜0.8 nM [^3H]DAMGO; from tissue; host or cells: forebrain of male Wistar rats (Charles River)
- test.method.notes: Rat Brain Mu Opioid Receptor Binding Assay
assay.endpoint: pKi
Value format note: pKi is -log10 of concentration (mol/L); just state the number.

1. CCN(CC)C(=O)c1ccc2c(c1)Oc1ccccc1C2C1CC2CCC(C1)N2CCc1ccccc1 (centres unmarked) [Compound 12a] : 6.18
2. CCN(CC)C(=O)c1ccc2c(c1)Oc1ccccc1C2C1CC2CCC(C1)N2Cc1ncc[nH]1 (centres unmarked) [Compound 16a] : 5.70
3. c1ccc2c(c1)Oc1cc(-c3ccoc3)ccc1C2C1CC2CCC(C1)N2 (centres unmarked) [Compound 5b] : 4.71
4. O=C(c1ccc2c(c1)Oc1ccccc1C2C1CC2CCC(C1)N2)N1CCCC1 (centres unmarked) [Compound 3g] : 5.12

Data request: Return pKi (reported value) for this compound: c1cncc(-c2ccc3c(c2)Oc2ccccc2C3C2CC3CCC(C2)N3)c1 (centres unmarked) [Compound 3b]
Data returned: 5.35

Data request: Output measured pKi for this item: c1ccc(CCN2C3CCC2CC(C2c4ccccc4Oc4cc(-c5ccncc5)ccc42)C3)cc1 (centres unmarked) [Compound 24b]
Data returned: 6.71

Data request: Supply reported pKi belonging to this compound: CC(=O)Nc1ccccc1-c1ccc2c(c1)Oc1c(O)cccc1C2C1CC2CCC(C1)N2 (centres unmarked) [Compound 3l]
Data returned: 7.69

Data request: Specify pKi for CCN(CC)C(=O)c1ccc2c(c1)Oc1ccc(F)cc1C2C1CC2CCC(C1)N2 (centres unmarked) [Compound 7e] and stop.
Data returned: 4.36
